These measurements were taken from patent US11723908B2.

Target: UniProt P04626
Sequence (P04626 23-1255): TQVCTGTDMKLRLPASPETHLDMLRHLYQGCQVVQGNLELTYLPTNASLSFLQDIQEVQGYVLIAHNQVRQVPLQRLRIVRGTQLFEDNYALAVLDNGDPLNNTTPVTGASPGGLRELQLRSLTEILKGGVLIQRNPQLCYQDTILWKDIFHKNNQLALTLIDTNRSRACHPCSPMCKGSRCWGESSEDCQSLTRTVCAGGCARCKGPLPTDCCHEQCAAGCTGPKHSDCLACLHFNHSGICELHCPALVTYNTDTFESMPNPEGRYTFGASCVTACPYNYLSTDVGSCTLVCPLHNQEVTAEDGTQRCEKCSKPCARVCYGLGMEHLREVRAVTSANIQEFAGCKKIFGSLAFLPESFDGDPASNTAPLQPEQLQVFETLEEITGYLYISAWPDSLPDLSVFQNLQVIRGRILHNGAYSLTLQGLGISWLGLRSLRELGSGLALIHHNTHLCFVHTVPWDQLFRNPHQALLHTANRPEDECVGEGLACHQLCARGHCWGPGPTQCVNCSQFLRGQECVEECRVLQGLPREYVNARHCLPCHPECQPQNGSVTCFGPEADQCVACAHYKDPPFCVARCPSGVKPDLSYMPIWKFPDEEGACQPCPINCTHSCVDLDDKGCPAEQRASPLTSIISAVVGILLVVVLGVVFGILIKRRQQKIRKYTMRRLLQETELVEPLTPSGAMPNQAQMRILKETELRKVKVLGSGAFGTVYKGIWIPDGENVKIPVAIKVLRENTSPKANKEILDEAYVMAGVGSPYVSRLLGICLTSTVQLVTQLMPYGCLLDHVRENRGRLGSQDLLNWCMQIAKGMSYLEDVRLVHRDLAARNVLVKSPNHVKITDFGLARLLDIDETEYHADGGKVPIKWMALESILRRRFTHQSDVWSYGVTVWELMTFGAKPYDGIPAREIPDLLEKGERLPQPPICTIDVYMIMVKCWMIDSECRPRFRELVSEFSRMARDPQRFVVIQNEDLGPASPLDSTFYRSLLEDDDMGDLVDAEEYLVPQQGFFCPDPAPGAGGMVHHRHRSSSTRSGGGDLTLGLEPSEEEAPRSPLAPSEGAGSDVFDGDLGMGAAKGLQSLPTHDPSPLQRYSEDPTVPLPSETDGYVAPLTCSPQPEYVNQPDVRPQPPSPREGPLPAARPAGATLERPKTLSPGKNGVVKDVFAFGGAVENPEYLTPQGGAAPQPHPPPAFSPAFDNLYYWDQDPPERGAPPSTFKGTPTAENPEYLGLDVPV
Test: BT474 cellular assay (HER2 inhibition), phospho-HER2 ELISA
Details: inhibition of phosphor HER2, BT474 cells, 2 hours compound incubation
Protocol: Assay a) BT474 Cellular Assay (HER2 Inhibition) Inhibition of phosphor HER2 was determined by enzyme-linked immunosorbent assay (ELISA) in BT474 cells. BT474 cell line was purchased from [NT] number HTB-20). Human Phospho-ErbB2 ELISA kit was purchased from R&D systems (catalog number DYC1768). Day 1: When the cells reach 70-90% confluence, cells were trypsinized and re-suspended. […] Absorbance at 450 nm and 570 nm was read within 30 minutes after adding the stop solution. […]
MEASUREMENT_TYPE: pIC50
The value called pIC50 is obtained by taking minus log10 of the concentration in mol/L.

| COMPOUND | pIC50 |
| --- | --- |
| [2H]C([2H])([2H])Oc1ccc2ncnc(Nc3ccc(Oc4cc5ncnn5cn4)c(C)c3)c2c1O[C@@H]1CCN(C)CC1(F)F | 7.96 |
| COc1ccc2ncc(C#N)c(Nc3ccc(Oc4cc5ncnn5cn4)c(C)c3)c2c1O[C@@H]1CCN(C)CC1(F)F | 6.68 |
| COc1ccc2ncnc(Nc3ccc(Oc4cc5ncnn5cn4)c(C)c3)c2c1N1C[C@H]2[C@@H]1CCN2C | 8.60 |
| COc1ccc2ncnc(Nc3ccc(Oc4cc5ncnn5cn4)c(C)c3)c2c1N1CC2(C[C@@H](F)CN2C)C1 (single isomer, unassigned) | 8.30 |
| Cc1cc(Nc2ncnc3ccc(OC(F)F)c(O[C@H]4CCN(C)CC4(F)F)c23)ccc1Oc1cc2ncnn2cn1 | 7.32 |

From here, focus on the item given below.
Entry COc1ccc2ncnc(Nc3ccc(Oc4cc5ncnn5cn4)c(C)c3)c2c1N1C[C@@H](N(C)C)[C@@H](F)C1 , pIC50 reported as 7.03

---

target: UniProt P08183; assay: MDCK-MDR1 Pgp assessment; type: in vitro ADME; conditions: conclusion from Table 3
Sequence (P08183 whole entry): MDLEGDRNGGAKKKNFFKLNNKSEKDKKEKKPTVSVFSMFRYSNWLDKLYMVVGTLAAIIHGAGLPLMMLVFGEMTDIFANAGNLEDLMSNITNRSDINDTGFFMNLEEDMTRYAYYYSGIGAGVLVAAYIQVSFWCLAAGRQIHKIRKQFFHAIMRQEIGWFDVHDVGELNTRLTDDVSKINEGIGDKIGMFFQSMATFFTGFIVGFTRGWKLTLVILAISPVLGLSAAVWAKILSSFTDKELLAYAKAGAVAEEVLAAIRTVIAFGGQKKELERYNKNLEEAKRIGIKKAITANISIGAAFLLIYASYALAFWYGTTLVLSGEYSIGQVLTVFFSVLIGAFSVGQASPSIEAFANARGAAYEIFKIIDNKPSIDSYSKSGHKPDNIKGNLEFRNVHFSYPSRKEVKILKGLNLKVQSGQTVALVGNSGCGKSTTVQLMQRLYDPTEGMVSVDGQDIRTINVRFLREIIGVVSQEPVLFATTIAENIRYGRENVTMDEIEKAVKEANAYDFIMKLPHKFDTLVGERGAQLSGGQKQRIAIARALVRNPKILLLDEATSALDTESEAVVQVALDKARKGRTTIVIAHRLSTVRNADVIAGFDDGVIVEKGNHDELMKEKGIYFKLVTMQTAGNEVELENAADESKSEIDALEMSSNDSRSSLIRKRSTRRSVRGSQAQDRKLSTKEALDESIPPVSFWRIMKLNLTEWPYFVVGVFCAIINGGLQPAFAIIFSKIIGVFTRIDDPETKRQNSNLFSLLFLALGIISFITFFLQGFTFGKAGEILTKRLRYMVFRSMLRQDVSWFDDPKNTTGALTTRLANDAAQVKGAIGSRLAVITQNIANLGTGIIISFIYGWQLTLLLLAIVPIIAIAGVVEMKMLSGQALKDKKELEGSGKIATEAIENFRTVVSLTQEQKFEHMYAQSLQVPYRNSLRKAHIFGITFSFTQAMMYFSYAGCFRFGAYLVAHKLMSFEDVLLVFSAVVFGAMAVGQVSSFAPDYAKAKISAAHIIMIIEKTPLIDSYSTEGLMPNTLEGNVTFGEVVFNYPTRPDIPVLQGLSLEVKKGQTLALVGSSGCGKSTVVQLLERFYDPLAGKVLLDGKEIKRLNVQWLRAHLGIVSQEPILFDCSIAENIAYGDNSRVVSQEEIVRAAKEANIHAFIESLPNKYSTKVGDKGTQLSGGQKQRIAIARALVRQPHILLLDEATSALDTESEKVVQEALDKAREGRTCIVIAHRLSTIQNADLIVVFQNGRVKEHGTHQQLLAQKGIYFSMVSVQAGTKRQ
MEASUREMENT_TYPE: Pgp substrate status

| MOLECULE | MEASUREMENT_TYPE | ASSAY_VALUE |
| --- | --- | --- |
| Cc1cc(Nc2ncnc3ccc(NC4=NC(C)(C)CO4)cc23)ccc1Oc1ccn2ncnc2c1 [Reference compound 3, reference compound] | Pgp substrate status | strong Pgp substrates |
| CCOc1cc2ncc(C#N)c(Nc3ccc(OCc4ccccn4)c(Cl)c3)c2cc1NC(=O)/C=C/CN(C)C [Reference compound 2, Neratinib, reference compound] | Pgp substrate status | strong Pgp substrates |

---

The entries below come with measured Kp values attached.
assay: Mouse SOA study for brain penetration; type: in vivo; settings: male, balb/c, mouse, brain, po, 10 mg/kg; read-out: Mouse Kpu, u
Lab note: jot the number down without any unit.

Below: 2 compounds and their reported Kp.
| COMPOUND | Kp |
| --- | --- |
| COc1ccc2ncnc(Nc3ccc(Oc4cc5ncnn5cn4)c(C)c3)c2c1O[C@@H]1CCN(C)CC1(F)F [Example 31] | 0.26 |
| COc1ccc2ncnc(Nc3ccc(Oc4cc5ncnn5cn4)c(Cl)c3)c2c1O[C@@H]1CCN(C)CC1(F)F [Example 33] | 0.24 |

From here, focus on the item given below.
Entry [2H]C([2H])([2H])Oc1ccc2ncnc(Nc3ccc(Oc4cc5ncnn5cn4)c(C)c3)c2c1O[C@@H]1CCN(C)CC1(F)F [Example 36] , Kp reported as 0.19

---

Biological target: wt-EGFR (Homo sapiens (Human))
Experiment: NCI H838 cellular assay (wt-EGFR inhibition), phospho-EGFR ELISA
Format: cell-based
Conditions: inhibition of phosphor wt-EGFR, NCI H838 cells, EGF 100 ng/ml
Description: Assay b) NCI H838 Cellular Assay (Wt-EGFR Inhibition) Inhibition of phosphor wt-EGFR was determined by enzyme-linked immunosorbent assay (ELISA) in NCI H838 cells (ATCC, catalog number CRL-5844). Human Phospho-EGFR DuoSet IC ELISA kit was purchased from R&D systems (catalog number DYC1095). Day 1: When the cells reach 70-90% confluence, cells were trypsinized and re-suspended. 5000 cells per well were seeded to a 384-well plate. […] Absorbance was read at 450 nm and 570 nm within 30 minutes.
MEASUREMENT_TYPE: pIC50
The value called pIC50 is obtained by taking minus log10 of the concentration in mol/L.

Below: 5 molecules and their reported pIC50.
| MOLECULE | ASSAY_VALUE |
| --- | --- |
| COc1ccc2ncnc(Nc3ccc(Oc4cc5ncnn5cn4)c(Cl)c3)c2c1O[C@H]1CCN(C)CC1(F)F [Example 34] | 5.20 |
| COc1ccc2ncnc(Nc3ccc(Oc4cc5ncnn5cn4)c(C)c3)c2c1N1CC2(C[C@H](F)CN2C)C1 (single isomer, unassigned) [Example 43] | 5.69 |
| COc1cc(O[C@H]2CCN(C)CC2(F)F)c2c(Nc3ccc(Oc4cc5ncnn5cn4)c(C)c3)ncnc2c1 [Example 51] | 6.74 |
| COc1ccc2ncnc(Nc3ccc(Oc4cc5ncnn5cn4)c(C)c3)c2c1N1C[C@@H]2[C@H]1CCN2C [Example 46] | 6.67 |
| COc1ccc2ncnc(Nc3ccc(Oc4cc5ncnn5cn4)c(C)c3)c2c1N1CC2(C[C@H](F)CCN2C)C1 (single isomer, unassigned) [Example 47] | 5.34 |

Entry COc1cc(O[C@@H]2CCN(C)CC2(F)F)c2c(Nc3ccc(Oc4cc5ncnn5cn4)c(C)c3)ncnc2c1 [Example 52] , pIC50 reported as 6.10

---

Assay: Mouse SOA study for brain penetration
Type: in vivo
Conditions: mouse SOA study, conclusion from Table 3
Protocol: Assay e) Mouse SOA Study for Brain Penetration Six non-fasted male balb/c mice (6-8 weeks, 20-25 g) were orally administered at 10 mg/kg, using a suspension formulation of 1% methylcellulose (MC) in deionized water. […] Quantification of the compound in plasma and brain was undertaken by LC-MS/MS. Area under the curve (AUC) was determined from 0 to 7 hours in the brain tissue and plasma. […] Unbound brain to plasma ratio was determined using the equation: Brain Kp,uu=Kp*fu,brain/fu,plasma […]
MEASUREMENT_TYPE: brain penetration in vivo

| SAMPLE_SMILES | ASSAY_VALUE |
| --- | --- |
| COc1ccc2ncnc(Nc3ccc(Oc4cc5ncnn5cn4)c(C)c3)c2c1O[C@@H]1CCN(C)CC1(F)F | brain penetrable |
| COc1ccc2ncnc(Nc3ccc(Oc4cc5ncnn5cn4)c(Cl)c3)c2c1O[C@@H]1CCN(C)CC1(F)F | brain penetrable |
| [2H]C([2H])([2H])Oc1ccc2ncnc(Nc3ccc(Oc4cc5ncnn5cn4)c(C)c3)c2c1O[C@@H]1CCN(C)CC1(F)F | brain penetrable |

---

target: wt-EGFR (Homo sapiens (Human), UniProt P00533); assay: NCI H838 cellular assay (wt-EGFR inhibition), phospho-EGFR ELISA; type: cell-based; settings: inhibition of phosphor wt-EGFR, NCI H838 cells, EGF 100 ng/ml
Sequence (P00533 25-1210): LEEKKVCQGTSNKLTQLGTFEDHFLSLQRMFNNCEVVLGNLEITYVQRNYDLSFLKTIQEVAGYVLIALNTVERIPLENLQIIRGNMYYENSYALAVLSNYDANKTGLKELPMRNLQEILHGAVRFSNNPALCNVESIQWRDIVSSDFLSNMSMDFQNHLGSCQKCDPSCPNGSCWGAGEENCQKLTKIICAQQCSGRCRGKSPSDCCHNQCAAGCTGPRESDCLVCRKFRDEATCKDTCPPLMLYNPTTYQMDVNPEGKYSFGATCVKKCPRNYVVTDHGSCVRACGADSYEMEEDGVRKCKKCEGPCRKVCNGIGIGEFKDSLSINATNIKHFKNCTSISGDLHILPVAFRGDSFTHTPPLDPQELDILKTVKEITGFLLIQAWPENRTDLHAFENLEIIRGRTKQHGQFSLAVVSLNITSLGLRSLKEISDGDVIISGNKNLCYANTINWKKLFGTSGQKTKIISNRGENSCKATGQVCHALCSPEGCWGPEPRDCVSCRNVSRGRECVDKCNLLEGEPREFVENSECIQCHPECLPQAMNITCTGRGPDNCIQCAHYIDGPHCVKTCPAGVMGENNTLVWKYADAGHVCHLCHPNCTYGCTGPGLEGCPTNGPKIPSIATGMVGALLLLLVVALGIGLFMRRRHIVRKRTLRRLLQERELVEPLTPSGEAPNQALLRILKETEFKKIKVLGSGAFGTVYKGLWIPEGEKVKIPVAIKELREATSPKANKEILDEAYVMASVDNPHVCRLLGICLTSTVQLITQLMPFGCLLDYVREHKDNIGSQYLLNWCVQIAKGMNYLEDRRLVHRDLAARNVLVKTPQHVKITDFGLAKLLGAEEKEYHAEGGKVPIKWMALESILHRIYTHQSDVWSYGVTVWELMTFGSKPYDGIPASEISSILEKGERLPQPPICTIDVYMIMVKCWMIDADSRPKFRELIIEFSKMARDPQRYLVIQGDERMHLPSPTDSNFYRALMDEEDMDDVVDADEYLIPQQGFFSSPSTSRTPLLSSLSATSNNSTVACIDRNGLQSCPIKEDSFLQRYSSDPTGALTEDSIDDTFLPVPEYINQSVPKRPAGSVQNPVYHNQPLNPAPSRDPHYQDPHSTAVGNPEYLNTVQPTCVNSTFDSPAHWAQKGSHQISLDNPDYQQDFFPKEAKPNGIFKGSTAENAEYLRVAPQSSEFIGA
MEASUREMENT_TYPE: pIC50
The value called pIC50 is obtained by taking minus log10 of the concentration in mol/L.

Below: 3 molecules and their reported pIC50.
| MOLECULE | pIC50 |
| --- | --- |
| COc1ccc2ncnc(Nc3ccc(Oc4cc5ncnn5cn4)c(C)c3)c2c1N1CC2(COCCN2C)C1 [Example 41] | 5.65 |
| Cc1cc(Nc2ncnc3ccc(OCCF)c(N4CC(N(C)C)C4)c23)ccc1Oc1cc2ncnn2cn1 [Example 12] | 6.74 |
| COc1ccc2ncnc(Nc3ccc(Oc4cc5ncnn5cn4)c(C)c3)c2c1N1CC(N(C)C)C1 [Example 1] | 5.55 |

From here, focus on the item given below.
Param item: COc1ccc2ncnc(Nc3ccc(Oc4cc5ncnn5cn4)c(C)c3)c2c1N1CC2(C[C@@H](F)CCN2C)C1 (single isomer, unassigned) [Example 48] ; param system: wt-EGFR (Homo sapiens (Human), UniProt P00533); output pIC50: 6.44

---

target: BCRP (Homo sapiens (Human), UniProt Q9UNQ0); test: Caco-2 BCRP assessment; format: in vitro ADME; conditions: Caco-2 cells, 1 μM, efflux ratio -/+ novobiocin 30 μM; >2 = BCRP substrate
Sequence (Q9UNQ0 whole entry): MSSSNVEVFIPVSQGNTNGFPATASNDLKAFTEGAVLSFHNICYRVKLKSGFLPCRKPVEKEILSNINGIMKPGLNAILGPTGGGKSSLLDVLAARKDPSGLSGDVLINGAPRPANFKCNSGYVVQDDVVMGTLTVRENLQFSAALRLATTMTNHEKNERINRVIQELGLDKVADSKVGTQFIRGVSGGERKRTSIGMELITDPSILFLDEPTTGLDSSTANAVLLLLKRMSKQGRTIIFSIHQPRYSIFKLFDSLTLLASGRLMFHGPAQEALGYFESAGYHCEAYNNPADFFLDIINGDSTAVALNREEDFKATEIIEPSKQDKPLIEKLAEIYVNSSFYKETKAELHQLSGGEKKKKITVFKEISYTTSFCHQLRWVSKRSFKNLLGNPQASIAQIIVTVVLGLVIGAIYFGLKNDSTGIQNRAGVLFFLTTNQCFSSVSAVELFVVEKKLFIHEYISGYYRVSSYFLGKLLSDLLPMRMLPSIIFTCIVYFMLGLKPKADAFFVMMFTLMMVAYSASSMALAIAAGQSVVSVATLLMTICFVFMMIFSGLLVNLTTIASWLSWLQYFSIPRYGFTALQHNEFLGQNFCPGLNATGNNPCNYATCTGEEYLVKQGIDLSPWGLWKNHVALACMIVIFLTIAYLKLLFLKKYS
Cut-off 1 on BCRP ER, inclusive. At or above means Fulfilled; below means Not fulfilled.

For orientation, consider the following solved cases.
| COMPOUND | LABEL_CLASS |
| --- | --- |
| COc1ccc2ncnc(Nc3ccc(Oc4cc5ncnn5cn4)c(C)c3)c2c1O[C@@H]1CCN(C)CC1(F)F | Not fulfilled |
| [2H]C([2H])([2H])Oc1ccc2ncnc(Nc3ccc(Oc4cc5ncnn5cn4)c(C)c3)c2c1O[C@@H]1CCN(C)CC1(F)F | Fulfilled |
| CCOc1cc2ncc(C#N)c(Nc3ccc(OCc4ccccn4)c(Cl)c3)c2cc1NC(=O)/C=C/CN(C)C [Reference compound 2, Neratinib, reference compound] | Fulfilled |
| CN1CCC(Oc2cccc3ncnc(Nc4ccc(NCc5ccccn5)c(Cl)c4)c23)CC1 [Reference compound 1, reference compound] | Fulfilled |

// next entry
### Prompt Evaluate COc1ccc2ncnc(Nc3ccc(Oc4cc5ncnn5cn4)c(Cl)c3)c2c1O[C@@H]1CCN(C)CC1(F)F : BCRP ER at minimum 1?
### Response Fulfilled
